Can you tell me melting point for the items I'm about to list?

QUERY: Data request, read-out melting point, for O=C(CCCC(=O)C(F)(F)F)c1ccc(-c2cccc3ccccc23)cc1
RESULT: 79.7 to 82.5 °C

QUERY: Data request, read-out melting point, for CCOP(C)(=O)CC(Cc1ccccc1)NS(=O)(=O)c1ccc(C)cc1 (stereo not drawn)
RESULT: 121 to 122 °C

QUERY: Data request, read-out melting point, for CCCCCCCCCCOC(=O)Oc1ccc(-c2ccc(C#N)cc2)cc1
RESULT: 59.3 to 60 °C

QUERY: Data request, read-out melting point, for COc1cc(CSC(=S)N(C)C)nc(N)n1
RESULT: 118 to 120 °C

QUERY: Data request, read-out melting point, for CC(=O)N(CCN1CCC(Nc2nc3ccccc3n2Cc2ccc(F)cc2)CC1)c1nccs1
RESULT: 186 to 193 °C

QUERY: Data request, read-out melting point, for O=Cc1ccc(OCC2CN(Cc3ccccc3)c3ccccc3O2)cc1 (stereo not drawn)
RESULT: 92 to 94 °C

QUERY: Data request, read-out melting point, for O=C(Nc1ccc(-n2nc(C(F)(F)F)cc2C(F)(F)F)cc1)Nc1ccc([N+](=O)[O-])cc1Cl
RESULT: 229 to 230 °C

QUERY: Data request, read-out melting point, for O=C(N[C@H]1CC[C@H](CCN2CCC(c3cccc4c3CCO4)CC2)CC1)c1ccc(N2CCOCC2)cc1
RESULT: 247 °C

QUERY: Data request, read-out melting point, for CCN(CC)CCC(=O)Nc1ccc(NC(=O)Nc2ccc(N(CCCl)CCCl)cc2)cc1
RESULT: 178 to 179 °C

QUERY: Data request, read-out melting point, for CCC(CC)c1ccc(OC)c2nc(Nc3c(C)cc(Cl)cc3OC)n(C)c12
RESULT: 188 to 189 °C

QUERY: Data request, read-out melting point, for CCSN(C)C(=O)Nc1ccc(Br)cc1
RESULT: < 50 °C

QUERY: Data request, read-out melting point, for Nc1nccnc1C(=O)Nc1ccccc1Cl
RESULT: 177 to 179 °C

QUERY: Data request, read-out melting point, for O=C1NC(c2ccccc2)=C2C(=O)OC(c3ccc(Br)cc3)=C12
RESULT: 295 °C
